Tested on: basal cells and pyramidal cells of the airway epithelium
EXPERIMENT: miRNA expression in sorted basal cells versus pyramidal cells (ciliated + secretory), HTS and Agilent chips
Design: species or system human
RUN_PARAMETERS: basal cells
Where Intensity of the level of expression in log2 in basal cells (323(+)) equals or exceeds 5 log2, the correct label is Condition met; where it does not, the label is Condition not met.

API: above_or_equal(metric=Intensity of the level of expression in log2 in basal cells (323(+)), cutoff=5 log2) for item hsa-miR-200a: human miRNA, SEQ ID No. 16 (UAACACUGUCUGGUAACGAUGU; expressed or natural sequence; listed as Homo sapiens) Condition met

* * *

Tested on: human airway epithelial cells (HAECs)
EXPERIMENT: High-throughput sequencing (HTS) of miRNAs at four stages of differentiation of HAECs
RUN_PARAMETERS: stage FC; Table VI
Measured Level of intensity of expression in log2 measured by high-throughput sequencing, FC of individual entries
Quick reminder: number only, in log2, skip the unit.

# SUBSTANCE, ENDPOINT_VALUE
data = [
    ("hsa-miR-106b: human miRNA, SEQ ID No. 2 (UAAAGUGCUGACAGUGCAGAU; expressed or natural sequence; listed as Homo sapiens)", 5.48),
    ("hsa-miR-34c-5p: human miRNA, SEQ ID No. 40 (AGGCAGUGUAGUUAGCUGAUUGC; expressed or natural sequence; listed as Homo sapiens)", 13.23),
    ("hsa-miR-200b: human miRNA, SEQ ID No. 17 (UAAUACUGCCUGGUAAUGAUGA; expressed or natural sequence; listed as Homo sapiens)", 9.93),
]

Dear colleague, I am looking for the recorded Level of intensity of expression in log2 measured by high-throughput sequencing, FC of the following substance: hsa-miR-200a: human miRNA, SEQ ID No. 16 (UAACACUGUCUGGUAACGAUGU; expressed or natural sequence; listed as Homo sapiens) 10.68

# iterate: hsa-miR-26b: human miRNA, SEQ ID No. 29 (UUCAAGUAAUUCAGGAUAGGU; expressed or natural sequence; listed as Homo sapiens) 6.97

* * *

Tested on: human airway epithelial cells (HAECs)
EXPERIMENT: Agilent miRNA chips, miRNA expression at four stages of differentiation of HAECs
RUN_PARAMETERS: stage WD; Table VI
Measured Level of intensity of expression in log2 measured with the Agilent chips, WD of individual entries
Quick reminder: number only, in log2, skip the unit.

Dear colleague, I am looking for the recorded Level of intensity of expression in log2 measured with the Agilent chips, WD of the following substance: hsa-miR-574-3p: human miRNA, SEQ ID No. 48 (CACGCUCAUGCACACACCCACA; expressed or natural sequence; listed as Homo sapiens) 5.77

# iterate: hsa-miR-34c-5p: human miRNA, SEQ ID No. 40 (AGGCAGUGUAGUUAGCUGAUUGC; expressed or natural sequence; listed as Homo sapiens) 11.39

# iterate: hsa-miR-30c: human miRNA, SEQ ID No. 34 (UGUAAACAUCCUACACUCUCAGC; expressed or natural sequence; listed as Homo sapiens) 9.31

# iterate: hsa-miR-151-5p: human miRNA, SEQ ID No. 8 (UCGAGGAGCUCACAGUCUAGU; expressed or natural sequence; listed as Homo sapiens) 8.17

# iterate: hsa-miR-140-3p: human miRNA, SEQ ID No. 5 (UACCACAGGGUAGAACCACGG; expressed or natural sequence; listed as Homo sapiens) 5.07

# iterate: hsa-miR-26b: human miRNA, SEQ ID No. 29 (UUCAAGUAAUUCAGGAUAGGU; expressed or natural sequence; listed as Homo sapiens) 9.62

# iterate: hsa-miR-99a: human miRNA, SEQ ID No. 52 (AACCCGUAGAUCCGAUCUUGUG; expressed or natural sequence; listed as Homo sapiens) 8.31

* * *

Test system: human airway epithelial cells (HAECs)
EXPERIMENT: High-throughput sequencing (HTS) of miRNAs at four stages of differentiation of HAECs
RUN_PARAMETERS: healthy human airway epithelial tissue, stage WD
Where Level of intensity of expression in log2 At the differentiated stage (WD) measured in HTS equals or exceeds 9 log2, the correct label is true (1); where it does not, the label is false (0).

API: above_or_equal(metric=Level of intensity of expression in log2 At the differentiated stage (WD) measured in HTS, cutoff=9 log2) for item hsa-miR-34c-5p: human miRNA, SEQ ID No. 40 (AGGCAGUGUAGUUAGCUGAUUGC; expressed or natural sequence; listed as Homo sapiens) false (0)

# iterate: hsa-miR-23b: human miRNA, SEQ ID No. 26 (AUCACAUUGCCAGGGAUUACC; expressed or natural sequence; listed as Homo sapiens) true (1)

# iterate: hsa-miR-140-3p: human miRNA, SEQ ID No. 5 (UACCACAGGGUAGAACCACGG; expressed or natural sequence; listed as Homo sapiens) true (1)

# iterate: hsa-miR-15a: human miRNA, SEQ ID No. 9 (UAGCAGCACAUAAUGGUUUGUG; expressed or natural sequence; listed as Homo sapiens) false (0)

* * *

Test system: human airway epithelial cells (HAECs)
EXPERIMENT: High-throughput sequencing (HTS) of miRNAs at four stages of differentiation of HAECs
RUN_PARAMETERS: stage FC; Table VI
Measured Level of intensity of expression in log2 measured by high-throughput sequencing, FC of individual entries
Quick reminder: number only, in log2, skip the unit.

Find the measured Level of intensity of expression in log2 measured by high-throughput sequencing, FC: item hsa-miR-203: human miRNA, SEQ ID No. 19 (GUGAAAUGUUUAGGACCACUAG; expressed or natural sequence; listed as Homo sapiens) , target or system human airway epithelial cells (HAECs). 13.39

* * *

Tested on: human airway epithelial cells (HAECs)
EXPERIMENT: Agilent miRNA chips, miRNA expression at four stages of differentiation of HAECs
RUN_PARAMETERS: stage D0; Table VI
Source text: In parallel with the high-throughput sequencing of the microRNAs, the repertoire of expression of the microRNAs (microRNAome) is investigated using the technology of Agilent® microRNA chips. […]
Measured Level of intensity of expression in log2 measured with the Agilent chips, D0 of individual entries
Dear colleague, please send the value followed by its unit.

// known answers, use as guide
# SUBSTANCE, ENDPOINT_VALUE
rows = [
    ("hsa-miR-15a: human miRNA, SEQ ID No. 9 (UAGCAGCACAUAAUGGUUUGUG; expressed or natural sequence; listed as Homo sapiens)", "7.74 log2"),
    ("hsa-let-7f: human miRNA, SEQ ID No. 161 (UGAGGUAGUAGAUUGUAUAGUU; expressed or natural sequence; listed as Homo sapiens)", "11.11 log2"),
    ("hsa-miR-22: human miRNA, SEQ ID No. 23 (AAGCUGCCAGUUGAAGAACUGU; expressed or natural sequence; listed as Homo sapiens)", "10.67 log2"),
    ("hsa-let-7g: human miRNA, SEQ ID No. 162 (UGAGGUAGUAGUUUGUACAGUU; expressed or natural sequence; listed as Homo sapiens)", "9.30 log2"),
    ("hsa-miR-151-5p: human miRNA, SEQ ID No. 8 (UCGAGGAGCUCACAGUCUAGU; expressed or natural sequence; listed as Homo sapiens)", "6.71 log2"),
    ("hsa-miR-200a: human miRNA, SEQ ID No. 16 (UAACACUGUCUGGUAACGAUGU; expressed or natural sequence; listed as Homo sapiens)", "8.64 log2"),
    ("hsa-miR-939: human miRNA, SEQ ID No. 50 (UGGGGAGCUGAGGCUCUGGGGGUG; expressed or natural sequence; listed as Homo sapiens)", "6.64 log2"),
    ("hsa-miR-224: human miRNA, SEQ ID No. 24 (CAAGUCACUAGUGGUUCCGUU; expressed or natural sequence; listed as Homo sapiens)", "6.84 log2"),
]

Dear colleague, I am looking for the recorded Level of intensity of expression in log2 measured with the Agilent chips, D0 of the following substance: hsa-miR-30d: human miRNA, SEQ ID No. 35 (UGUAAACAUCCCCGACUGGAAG; expressed or natural sequence; listed as Homo sapiens) 7.06 log2

# iterate: hsa-miR-203: human miRNA, SEQ ID No. 19 (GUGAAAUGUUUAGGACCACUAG; expressed or natural sequence; listed as Homo sapiens) 10.64 log2

# iterate: hsa-miR-34c-5p: human miRNA, SEQ ID No. 40 (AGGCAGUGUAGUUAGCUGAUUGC; expressed or natural sequence; listed as Homo sapiens) 3.94 log2

The reported measurements were obtained from patent US9023821B2.
